Values from PubChem BioAssay

assay: small-molecule microarray binders of probe aEGFR, primary screen, biochemical, biotinylated probe, 635/667 nm fluorescence (AID 1097); conditions: higher = more signal;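 note: probe is a biotinylated anti-EGFR antibody binding compounds printed on slides; score combines fluorescence near 667 nm and signal to noise of each spot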
Entries and their composite z-score values follow.
quantity_kind: composite z-score

[[record]]
smiles_repr = "O=C1c2ccccc2[C@](Cc2ccccc2I)(C(=O)NCCN2CCOCC2)[C@H](c2ccc(CO)cc2)N1C1CCCCC1"
measured = 0.521

[[record]]
smiles_repr = "CC(C)[Si](C#Cc1ccc(Oc2ccccc2)cc1)(O[Si](C#Cc1ccc(Oc2ccccc2)cc1)(C(C)C)C(C)C)C(C)C"
measured = 0.0746

[[record]]
smiles_repr = "Cc1ccc(S[C@]2(C(=O)NCCCN(C)C)CC(=O)N(Cc3cc(C(F)(F)F)cc(C(F)(F)F)c3)[C@@H]2c2ccc(CO)cc2I)cc1"
measured = -0.0246

[[record]]
smiles_repr = "NCCCCCCNC(=O)[C@@H]1C[C@@H]2C(=O)NCC(=O)N2[C@@H]1c1ccc(O)cc1"
measured = -0.0409


* * *

target: Dickkopf-related protein 1 (Homo sapiens) (UniProt O94907); assay: DKK1 binders on small-molecule microarrays, primary screen, biochemical, small-molecule microarray, 635 nm fluorescence scan (AID 1106); details: DKK1 binding, higher = more signal;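 note: score merges emission near 667 nm with signal to noise over three replicate slides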
Sequence (O94907 whole entry, looked up): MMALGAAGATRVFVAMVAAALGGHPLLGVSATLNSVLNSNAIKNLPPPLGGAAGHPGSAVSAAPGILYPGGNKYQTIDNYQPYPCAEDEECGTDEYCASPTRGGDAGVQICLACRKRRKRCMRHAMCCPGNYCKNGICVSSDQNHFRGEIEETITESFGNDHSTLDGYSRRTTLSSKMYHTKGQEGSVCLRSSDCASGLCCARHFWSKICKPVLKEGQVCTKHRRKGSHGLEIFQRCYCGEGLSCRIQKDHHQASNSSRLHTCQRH
Group membership follows composite z-score per the scheme low band = under 0.07, middle band = from 0.07 up to 0.6, high band = 0.6 and over

[[record]]
molecule = "O=C1[C@@]23C=C(Br)[C@H](C[C@@H]2CCOC3)[C@@]12CO2"
class_label = "middle band"

[[record]]
molecule = "O=C1NC(=O)C2C1C=CC(C(O)c1cc(C(F)(F)F)cc(C(F)(F)F)c1)N2Nc1ccccn1 (stereo not given)"
class_label = "low band"

[[record]]
molecule = "C=C(COC)/C(=C/C[C@@H](OC(=O)c1ccncc1)c1ccc(CO)o1)c1cc(C(=O)OC)ccc1OC"
class_label = "high band"

[[record]]
molecule = "C=CC(=C)[C@H]1Oc2ccccc2S(=O)(=O)N2CCC[C@@H]12"
class_label = "middle band"

[[record]]
molecule = "COCCOC(=O)N1C(=O)[C@@]2(c3cc(C#CCNC(N)=O)ccc31)[C@H](C(=O)N1CCN(c3ncccn3)CC1)[C@H]1C(=O)O[C@H](c3ccccc3)[C@H](c3ccccc3)N1[C@@H]2c1ccc(OCCO)cc1"
class_label = "middle band"

[[record]]
molecule = "CC(C)=CCCC(C)=CC(O)C1C=CC2C(=O)N(C)C(=O)C2N1Nc1ccccc1 (stereo not given)"
class_label = "high band"

[[record]]
molecule = "COCCOC(=O)N1C(=O)[C@@]2(c3ccccc31)[C@H](c1ccc(O)cc1)N1[C@H](c3ccccc3)[C@H](c3ccccc3)OC(=O)[C@H]1[C@@H]2C(=O)Nc1nc2ccccc2s1"
class_label = "middle band"

[[record]]
molecule = "COc1ccc(CCNC(=O)[C@@]2(Sc3ccc(C)cc3)CC(=O)N(C3Cc4ccccc4C3)[C@@H]2c2ccc(CO)cc2I)cc1"
class_label = "low band"

[[record]]
molecule = "COC(=O)[C@@]1(Cc2ccc(OC)cc2)[C@H]2c3cc(C(=O)N4CCCC4)n(Cc4ccc(O)c(OC)c4)c3C[C@H]2CN1C(=O)c1ccccc1"
class_label = "low band"

[[record]]
molecule = "COC(=O)[C@@]1(Cc2ccccc2)[C@H]2c3cc(C(=O)N(C)C)n(Cc4ccsc4Br)c3C[C@H]2CN1C(=O)c1ccccc1"
class_label = "low band"

[[record]]
molecule = "COc1cc2c(cc1O)C(C1CC1)N(Cc1sc3ccccc3c1Cl)CC2 (stereo not given)"
class_label = "low band"

[[record]]
molecule = "CO[C@H]1O[C@H](CO)[C@@H](OC(=O)Nc2ccccc2)[C@H](OC(=O)Nc2ccccc2)[C@@H]1OC(=O)Nc1ccccc1"
class_label = "middle band"

[[record]]
molecule = "COCCCNC(=O)[C@@]1(C)c2ccccc2C(=O)N(C(C)C)[C@H]1c1ccc(CO)cc1"
class_label = "high band"

[[record]]
molecule = "COCCOC(=O)N1C(=O)[C@@]2(c3cc(C#CC4(O)CCCCCC4)ccc31)[C@H](c1ccccc1OCCO)N1[C@H](c3ccccc3)[C@H](c3ccccc3)OC(=O)[C@H]1[C@@H]2C(=O)N1CCN(c2ncccn2)CC1"
class_label = "high band"

[[record]]
molecule = "O=C(NC1CC1)[C@@H]1c2ccccc2C(=O)N(Cc2ccccc2Cl)[C@H]1c1ccc(CO)cc1"
class_label = "high band"


* * *

assay: E. coli acrAB mutant growth effects, primary screen, E. coli filamentation inducers, strain DRC39, OD650, 48 h (AID 1179);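 note: screen aims at cell division blockers that make cells filament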; conditions: E. coli DRC39 delta-acrAB growth, higher = more signal, called active from +8 up or from −8 down
Entries and their z-score values follow.
quantity_kind: z-score

[[record]]
molecule = "CN(C)C(=O)[C@@]1(CCS(=O)(=O)c2ccccc2)COC(c2ccc(OCCCO)cc2)=N1"
quantity_kind = "z-score"
measured = 0.56

[[record]]
molecule = "C=CCC(OC(C)=O)[C@@H]1[C@@H](N(Cc2cccc3ccccc23)C(=O)c2ccc(-c3ccccc3)cc2)c2cc(OCCCO)ccc2N1C(=O)c1ccc2ccccc2c1 (some centres undefined)"
quantity_kind = "z-score"
measured = 0.295

[[record]]
molecule = "O[C@@H](Cc1ccccc1)[C@H]1C2C=CCCC=C2CN1Cc1cccc(Cl)c1 (some centres undefined)"
quantity_kind = "z-score"
measured = 0.73

[[record]]
molecule = "COC(=O)C(CC#Cc1ccc2c(c1)[C@]1(C(=O)N2)[C@H](c2ccc(OCCO)cc2)N2[C@H](c3ccccc3)[C@H](c3ccccc3)OC(=O)[C@H]2[C@@H]1C(=O)Nc1nc2ccccc2s1)C(=O)OC"
quantity_kind = "z-score"
measured = 0.824

[[record]]
molecule = "CCCC[C@@H]1C[C@H]1[C@@H](NC(=O)c1ccco1)c1ccc(-c2ccccc2)cc1"
quantity_kind = "z-score"
measured = -1.2

[[record]]
molecule = "CCCC[C@@H]1C[C@H]1[C@@H](NC(=O)c1ccco1)c1ccccc1C(F)(F)F"
quantity_kind = "z-score"
measured = -0.127

[[record]]
molecule = "C=CCOC(=O)[C@H]1[C@@H]2C(=O)O[C@@H](c3ccccc3)[C@@H](c3ccccc3)N2[C@@H](c2ccc(OCCOC(=O)[C@H]3C[C@H]4C(=O)N[C@@H](CCCC[N+](C)(C)C)C(=O)N4[C@H]3c3ccc(O)cc3)cc2)[C@]12C(=O)Nc1ccc(I)cc12"
quantity_kind = "z-score"
measured = -0.473

[[record]]
molecule = "C=C(/C(=C/C[C@H](OC(C)=O)c1ccccc1OCCO)c1cnc2ccccc2c1)C(C)C"
quantity_kind = "z-score"
measured = -0.622

[[record]]
molecule = "O=C(NCCN1CCOCC1)[C@@H]1c2ccccc2C(=O)N(C2CCCCC2)[C@H]1c1ccc(CO)cc1"
quantity_kind = "z-score"
measured = -0.783

[[record]]
molecule = "COc1cc2c(cc1OC)CN(C(=O)[C@H]1[C@@H]3C(=O)O[C@@H](c4ccccc4)[C@@H](c4ccccc4)N3[C@@H](c3ccc(O)cc3)[C@]13C(=O)Nc1ccc(C#CCCO)cc13)CC2"
quantity_kind = "z-score"
measured = -0.712

[[record]]
molecule = "C=C(C(=O)CC[C@@H](OC(=O)c1cccnc1)c1ccccc1OCCO)C(C)C"
quantity_kind = "z-score"
measured = 0.195

[[record]]
molecule = "C=CCN1C(=O)[C@]2(O[C@H](CCn3cc([C@H](O)c4ccccc4)nn3)[C@@H]([Si](C)(C)c3ccc(OC)cc3)[C@@H]2C)c2cc(N3CCC3=O)ccc21"
quantity_kind = "z-score"
measured = -0.0117

[[record]]
molecule = "CC1(C)[C@@H]2CC(C(O)C3C=CC4C(=O)N(c5ccccc5)C(=O)C4N3Nc3ccc([N+](=O)[O-])cc3)=C[C@H]1C2 (some centres undefined)"
quantity_kind = "z-score"
measured = -0.512

[[record]]
molecule = "C=C[C@H](C)[C@@H](OC(=O)Nc1ccc(OC)cc1)c1ccc(O)c2ccccc12"
quantity_kind = "z-score"
measured = 0.525


* * *

experiment: MM1S myeloma cell viability, profiling panel, resazurin fluorescence, basal, 24 h, PK04 Diversity Set (AID 1174); details: higher = more signal, called active from +8 up or from −8 down;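 note: MM1S multiple myeloma cell line; test concentration not given here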
Entries and their z-score values follow.
quantity_kind: z-score

[[record]]
smiles_repr = "[N-]=[N+]=Nc1ccccc1[C@@H]1OC(c2ccc(OCCCO)cc2)=N[C@]1(Cc1ccccc1)C(=O)N1CCOCC1"
measured = -1.6

[[record]]
smiles_repr = "COC(=O)[C@@]1(Cc2ccc(F)cc2)[C@H]2c3cc(C(=O)N(C)C)n(Cc4ccccc4)c3C[C@H]2CN1C(=O)c1ccccc1"
measured = -0.946

[[record]]
smiles_repr = "CCc1cccc(NC(=O)O[C@H]2[C@H](OC(=O)Nc3ccccc3-c3ccccc3)[C@@H](OC(=O)Nc3ccccc3-c3ccccc3)[C@@H](OC)O[C@@H]2CO)c1"
measured = -4.83

[[record]]
smiles_repr = "COC(=O)[C@@]1(Cc2ccc(F)cc2)[C@H]2c3cc(C(=O)N4CCCC4)n(CCCNc4ncc(C(F)(F)F)cc4Cl)c3C[C@H]2CN1C(=O)c1ccccc1"
measured = -2.38

[[record]]
smiles_repr = "COC(=O)[C@@]1(CCS(=O)(=O)c2ccccc2)N=C(c2ccc(OCCCO)cc2)O[C@H]1c1ccccc1CN=[N+]=[N-]"
measured = -3.13

